Values compiled from patent US20080031866A1.

- experiment: Oral gavage pharmacokinetics, jugular and portal vein sampling, first pass metabolism
- Type: in vivo, rat
- assaySetup: male, Sprague Dawley, rat, portal vein plasma, po, 75 mg/kg, rats N=4; Compound 1 75 mg/kg oral gavage; portal sample; read-out: AUC average ± standard deviation 0 to infinite hours
- Description: Two separate IV studies were carried out using two separate lots of animals. IV-A was run on the same lot of animals as the oral gavage study and IV-B was run on the same lot of animals as the intraduodenal and intra-colonic studies. For the oral gavage dosing, Compound 1 was prepared in neat PEG-400. […] The two glucuronide conjugates were prepared and purified to permit accurate quantification of the levels of intact parent Compound 1 versus Cpd 1-GluA and Cpd 1-GluB. […]
parameter: AUC (ng·h/mL)
Give the number; ng·h/mL is assumed, so skip it.

// query What AUC value was documented for this compound, COc1cc2c(cc1OC)-c1n[nH]c(N(c3cccc(F)c3)[C@H]3O[C@@H](C(=O)O)[C@H](O)[C@@H](O)[C@@H]3O)c1C2 [Cpd 1-GluA] ?
// result 271000

// query What does the record list as AUC for COc1cc2c(cc1OC)-c1n[nH]c(Nc3cccc(F)c3)c1C2 [Compound 1] ?
// result 12500

// query Consider the compound COc1cc2c(cc1OC)-c1nn(C3OC(C(=O)O)C(O)C(O)C3O)c(Nc3cccc(F)c3)c1C2 (stereo in doubt) [Cpd 1-GluB] and give its measured AUC.
// result 2490

* * *

Task for the reader: assign each of the following compounds its reported concentration at 0.5 h.
- experiment: Oral gavage pharmacokinetics, jugular and portal vein sampling, first pass metabolism
- Format: in vivo, rat
- assaySetup: male, Sprague Dawley, rat, plasma (jugular vein sample); rats N=4; Compound 1 75 mg/kg oral gavage; jugular sample; 0.5 hrs
Numeric answer only, unit ng/mL assumed.

// query What does the data say about its concentration at 0.5 h? Entry: COc1cc2c(cc1OC)-c1nn(C3OC(C(=O)O)C(O)C(O)C3O)c(Nc3cccc(F)c3)c1C2 (stereo in doubt) [Cpd 1-GluB]
// result 223

// query // concentration at 0.5 h lookup, key: COc1cc2c(cc1OC)-c1n[nH]c(N(c3cccc(F)c3)[C@H]3O[C@@H](C(=O)O)[C@H](O)[C@@H](O)[C@@H]3O)c1C2 [Cpd 1-GluA]
// result 15700

// query Data request, read-out concentration at 0.5 h, for COc1cc2c(cc1OC)-c1n[nH]c(Nc3cccc(F)c3)c1C2 [Compound 1]
// result 1220

* * *

- experiment: Intracolonic dosing with and without β-glucuronidase, catheterized rat
- Format: in vivo
- assaySetup: male, Sprague Dawley, rat, plasma, other: intracolonic, 10 mg/kg, rats N=6; Compound 1 10 mg/kg intracolonic with β-glucuronidase; 6 hrs
parameter: concentration at 6 h (ng/mL)
# output: bare number, implied unit ng/mL

// query I would be grateful if you could share the reported concentration at 6 h for COc1cc2c(cc1OC)-c1nn(C3OC(C(=O)O)C(O)C(O)C3O)c(Nc3cccc(F)c3)c1C2 (stereo in doubt) .
// result 119

// query Record request: concentration at 6 h value, item COc1cc2c(cc1OC)-c1n[nH]c(N(c3cccc(F)c3)[C@H]3O[C@@H](C(=O)O)[C@H](O)[C@@H](O)[C@@H]3O)c1C2
// result 462

// query Reported concentration at 6 h for COc1cc2c(cc1OC)-c1n[nH]c(Nc3cccc(F)c3)c1C2 : what is it?
// result 1.7
